Molecular target: Left-right determination factor 2 (Homo sapiens) (UniProt O00292)
Sequence (O00292 whole entry, looked up): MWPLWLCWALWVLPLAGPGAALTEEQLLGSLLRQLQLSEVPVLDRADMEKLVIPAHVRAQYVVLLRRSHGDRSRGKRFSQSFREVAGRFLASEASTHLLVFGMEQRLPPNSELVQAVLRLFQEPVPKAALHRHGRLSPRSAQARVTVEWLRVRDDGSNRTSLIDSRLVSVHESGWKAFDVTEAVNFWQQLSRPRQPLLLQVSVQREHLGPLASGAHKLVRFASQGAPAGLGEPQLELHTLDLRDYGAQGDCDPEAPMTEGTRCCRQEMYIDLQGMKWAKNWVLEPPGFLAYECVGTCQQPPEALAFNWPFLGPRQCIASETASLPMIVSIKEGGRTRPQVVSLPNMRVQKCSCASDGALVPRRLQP
Experiment: LEFTY2 binders on small-molecule microarrays, primary screen, biochemical, small-molecule microarray, 635 nm fluorescence scan (AID 1110)
Conditions: LEFTY2 binding, higher = more signal
Output YES for composite z-score not less than 0.07; output NO otherwise.

For orientation, consider the following solved cases.
- molecule: "CCCCC(O)C1C=CC2C(=O)NC(=O)C2N1Nc1ccc(Cl)cc1Cl (stereo not given)"
  targetDesc: "Left-right determination factor 2 (Homo sapiens) (UniProt O00292)"
  label: "NO"
- molecule: "COCC(=C=CC[C@@H](O)c1ccc(OCCO)cc1)C[C@@H](O)COCc1ccccc1"
  targetDesc: "Left-right determination factor 2 (Homo sapiens) (UniProt O00292)"
  label: "YES"
- molecule: "CC(C)C[C@@H]1NC(=O)[C@H]2C[C@@H](C(=O)NCCCCCCNC(=O)CS)[C@@H](c3ccc(O)cc3)N2C1=O"
  targetDesc: "Left-right determination factor 2 (Homo sapiens) (UniProt O00292)"
  label: "YES"

[ask] Does the molecule `CCc1cccc(NC(=O)O[C@H]2[C@H](OC(=O)Nc3ccc4c(c3)OCO4)[C@H](OC(=O)Nc3ccc4c(c3)OCO4)[C@@H](OC)O[C@@H]2CO)c1` have recorded composite z-score that is 0.07 or more?
[reply] NO
